measurement-notes: Particle size distribution (PSD)
Format: physicochemical
test-settings: Crystallization 2, 10 gram scale, crystals from Crystallization 1 as seeds
readout-kind: Particle Size Distribution D(90) (µm)

| molecule | assay-result |
| --- | --- |
| Cc1ncccc1-c1cc2c(n3cnnc13)NCc1c(F)ccc3c1C(CO3)CO2 (stereo in doubt) [Form P] | 634 |

---

measurement-notes: Particle size distribution (PSD)
Assay type: physicochemical
test-settings: Crystallization 1, 10 gram scale, milled Form P as seeds

| compound | units | Particle Size Distribution D(90) |
| --- | --- | --- |
| Cc1ncccc1-c1cc2c(n3cnnc13)NCc1c(F)ccc3c1C(CO3)CO2 (stereo in doubt) [Form P] | µm | 196 |

---

measurement-notes: Particle size distribution (PSD)
Format: physicochemical
test-settings: Crystallization 1, 10 gram scale, milled Form P as seeds
readout-kind: Particle Size Distribution D(10) (µm)

| compound | assay-result |
| --- | --- |
| Cc1ncccc1-c1cc2c(n3cnnc13)NCc1c(F)ccc3c1C(CO3)CO2 (stereo in doubt) [Form P] | 37.2 |

---

measurement-notes: physchem
test-settings: 70 °C, organic solvent or mixture, thermodynamic from solid

| compound | solubility |
| --- | --- |
| Cc1ncccc1-c1cc2c(n3cnnc13)NCc1c(F)ccc3c1C(CO3)CO2 (stereo in doubt) [Form P] | 56.7 mg/mL |

---

measurement-notes: Particle size distribution (PSD)
Type: physicochemical
test-settings: Crystallization 1, 10 gram scale, milled Form P as seeds

| compound | Particle Size Distribution D(50) |
| --- | --- |
| Cc1ncccc1-c1cc2c(n3cnnc13)NCc1c(F)ccc3c1C(CO3)CO2 (stereo in doubt) [Form P] | 115 µm |
